Quick list: EC50 per entry.
- Tested on: HSV-1 Strain F
- assay.details: Viral qPCR assay, HSV-1 in Vero cells
- Format: cell-based, Herpes Simplex Virus type 1
- experimental.parameters: Human alphaherpesvirus 1, Vero, 72 h, read-out: HSV1 VERO Cell (EC50)
parameter: EC50 (µM)

>>> print(df.to_string())
                                   compound  scale_unit  meas_value
0  O=C1CC[C@H](CC2Cc3c(C(=O)NCc4ccc(Cl)cc4)nn(CCN4CC(F)C4)c3C2)N1 (some centres unmarked) [Compound 132]          µM        7.16
1  Cn1nc(C(=O)NCc2ccc(Cl)cc2)c2c1CN(C[C@H]1CCC(=O)N1)C2 [Compound 32]          µM       0.381
2  O=C1CC[C@H](CN2Cc3c(C(=O)NCc4ccc(Cl)cc4)nn(CC4CCO4)c3C2)N1 (some centres unmarked) [Compound 39]          µM        12.4
3  CN(CCn1nc(C(=O)NCc2ccc(Cl)cc2)c2c1CN(C[C@H]1CCC(=O)N1)C2)C(=O)C1CCC1 [Compound 3]          µM        33.3
4  CC(C)(O)Cn1nc(C(=O)NCc2ccc(Cl)cc2)c2c1CN(C[C@H]1CCC(=O)N1)C2 [Compound 58]          µM       0.536
5  CC1(C(=O)NCCn2nc(C(=O)NCc3ccc(Cl)cc3)c3c2CN(C[C@H]2CCC(=O)N2)C3)CC1 [Compound 26]          µM        66.1
6  CCC1(Cn2nc(C(=O)NCc3ccc(Cl)cc3)c3c2CN(C[C@H]2CCC(=O)N2)C3)COC1 [Compound 40]          µM        23.3
7  O=C1CC[C@H](CN2Cc3c(C(=O)NCc4ccc(Cl)cc4)nn(CCN4CC(F)C4)c3C2)N1 [Compound 4]          µM        26.1
